# target entity: 5-HT2A receptor (Homo sapiens)
# Construct: expressed in transfected cells; host or cells: HEK293
# Sequence (P28223 whole entry): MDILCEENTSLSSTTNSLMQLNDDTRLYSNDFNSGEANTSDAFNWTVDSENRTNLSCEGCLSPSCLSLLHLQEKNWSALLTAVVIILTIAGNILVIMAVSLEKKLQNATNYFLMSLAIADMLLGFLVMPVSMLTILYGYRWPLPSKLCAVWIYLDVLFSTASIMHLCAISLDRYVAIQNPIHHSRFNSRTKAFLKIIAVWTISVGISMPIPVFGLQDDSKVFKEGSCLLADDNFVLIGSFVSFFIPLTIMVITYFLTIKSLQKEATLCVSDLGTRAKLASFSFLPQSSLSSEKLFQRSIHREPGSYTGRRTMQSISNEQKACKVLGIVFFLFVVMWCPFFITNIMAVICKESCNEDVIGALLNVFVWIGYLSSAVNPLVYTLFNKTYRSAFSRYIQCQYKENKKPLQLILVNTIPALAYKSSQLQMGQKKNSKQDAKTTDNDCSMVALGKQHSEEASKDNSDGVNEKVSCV
# assay summary: 5-HT2A receptor binding test
# assay setup: [3H]-Ketanserin, 5-HT2A receptor expressed in HEK293 cells; read-out: Affinity of the compound for each receptor (Ki value, nM) 5-HT2A
measured endpoint: log10 Ki (log10 of the value in nM)

line notation	log10 Ki
CNC(=O)N[C@H]1CC[C@H](CCN2CCN(c3cc(-c4ccc(F)cc4)cc(N4CCOCC4)n3)CC2)CC1	-0.05
COCC(=O)N[C@H]1CC[C@H](CCN2CCN(c3cc(-c4ccco4)cc(N4CCOCC4)n3)CC2)CC1	0.94
COc1ccc(-c2cc(N3CCOCC3)nc(N3CCN(CC[C@H]4CC[C@H](NC(=O)N5CCCCC5)CC4)CC3)c2)cc1	1.10
COc1ccc(-c2cc(N3CCOCC3)nc(N3CCN(CC[C@H]4CC[C@H](NC(=O)N5CCN(C)CC5)CC4)CC3)c2)cc1	0.82
O=C(N[C@H]1CC[C@H](CCN2CCN(c3cc(-c4ccc(F)cc4)cc(N4CCOCC4)n3)CC2)CC1)c1ccco1	0.08
CCC(=O)N[C@H]1CC[C@H](CCN2CCN(c3cc(-c4ccc[nH]4)cc(N4CCOCC4)n3)CC2)CC1	0.51
O=C(N[C@H]1CC[C@H](CCN2CCN(c3cc(-c4ccc(F)cc4)cc(N4CCOCC4)n3)CC2)CC1)c1ccccc1	0.36
CN(C)C(=O)N[C@H]1CC[C@H](CCN2CCN(c3cc(-c4ccccc4)cc(N4CCOCC4)n3)CC2)CC1	-0.70
CN(C)C(=O)N[C@H]1CC[C@H](CCN2CCN(c3cc(-c4ccc[nH]4)cc(N4CCOCC4)n3)CC2)CC1	0.04
O=C(N[C@H]1CC[C@H](CCN2CCN(c3cc(-c4ccccc4)cc(N4CCOCC4)n3)CC2)CC1)c1ccco1	0.00
O=C(N[C@H]1CC[C@H](CCN2CCN(c3cc(-c4ccc[nH]4)cc(N4CCOCC4)n3)CC2)CC1)N1CCCCC1	0.90
CCC(=O)N[C@H]1CC[C@H](CCN2CCN(c3cc(-c4cccnc4)cc(N4CCOCC4)n3)CC2)CC1	0.43
O=C(N[C@H]1CC[C@H](CCN2CCN(c3cc(-c4ccco4)cc(N4CCOCC4)n3)CC2)CC1)N1CCOCC1	0.46
O=C(N[C@H]1CC[C@H](CCN2CCN(c3cc(-c4cccnc4)cc(N4CCOCC4)n3)CC2)CC1)c1ccco1	0.04
O=C(N[C@H]1CC[C@H](CCN2CCN(c3cc(-c4ccc[nH]4)cc(N4CCOCC4)n3)CC2)CC1)C1CCCCC1	0.58

====

Listed molecules paired with reported MTD
# assay summary: Acute toxicity experiment, single oral administration
# assay setup: ICR, mouse, in vivo, single oral administration, ICR mice, read-out: MTD (maximum tolerance)

line notation	MTD
O=C(N[C@H]1CC[C@H](CCN2CCN(c3cc(-c4ccc(F)cc4)cc(N4CCOCC4)n3)CC2)CC1)c1cccnc1	≥ 400 mg/kg
O=C(N[C@H]1CC[C@H](CCN2CCN(c3cc(-c4cccs4)cc(N4CCOCC4)n3)CC2)CC1)N1CCCC1	> 2000 mg/kg
O=C(N[C@H]1CC[C@H](CCN2CCN(c3cc(-c4cccnc4)cc(N4CCOCC4)n3)CC2)CC1)c1ccco1	> 2000 mg/kg
O=C(N[C@H]1CC[C@H](CCN2CCN(c3cc(-c4ccco4)cc(N4CCOCC4)n3)CC2)CC1)N1CCOCC1	≥ 400 mg/kg
CCOC(=O)N[C@H]1CC[C@H](CCN2CCN(c3cc(-c4ccccc4)cc(N4CCOCC4)n3)CC2)CC1	≥ 400 mg/kg
O=C(N[C@H]1CC[C@H](CCN2CCN(c3cc(-c4ccccc4)cc(N4CCOCC4)n3)CC2)CC1)c1ccco1	> 2000 mg/kg
CN(C)C(=O)N[C@H]1CC[C@H](CCN2CCN(c3cc(-c4ccc[nH]4)cc(N4CCOCC4)n3)CC2)CC1	≥ 400 mg/kg

====

# assay summary: Acute toxicity experiment, single oral administration
# assay setup: ICR, mouse, in vivo
measured endpoint: MTD (mg/kg)

compound	measured endpoint	unit info	value measured
CN(C)C(=O)N[C@H]1CC[C@H](CCN2CCN(c3cccc(Cl)c3Cl)CC2)CC1 [Cariprazine, cariprazine, reference compound]	MTD	mg/kg	320

====

# target entity: 5-HT2A receptor (Homo sapiens)
# Construct: expressed in transfected cells; host or cells: HEK293
# assay summary: 5-HT2A receptor binding test

line notation	Ki, nM
CCOC(=O)N[C@H]1CC[C@H](CCN2CCN(c3cc(-c4ccccc4)cc(N4CCOCC4)n3)CC2)CC1	2.1

====

# target entity: D2 receptor (Homo sapiens)
# Sequence (P14416 whole entry): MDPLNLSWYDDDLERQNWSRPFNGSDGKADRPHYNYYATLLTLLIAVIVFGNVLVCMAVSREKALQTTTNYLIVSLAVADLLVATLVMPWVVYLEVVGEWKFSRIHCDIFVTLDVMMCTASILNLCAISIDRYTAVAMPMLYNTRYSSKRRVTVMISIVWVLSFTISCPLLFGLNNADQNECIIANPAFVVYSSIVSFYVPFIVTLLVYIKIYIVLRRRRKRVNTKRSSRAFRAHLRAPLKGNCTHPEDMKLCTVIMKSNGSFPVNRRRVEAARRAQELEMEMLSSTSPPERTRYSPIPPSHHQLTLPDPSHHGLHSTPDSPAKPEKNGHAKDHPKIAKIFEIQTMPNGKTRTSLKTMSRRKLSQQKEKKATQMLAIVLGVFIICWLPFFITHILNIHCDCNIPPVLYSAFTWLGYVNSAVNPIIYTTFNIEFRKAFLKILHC
# assay summary: Dopamine D2 receptor binding test
pKi: −log10 of the molar value.
measured endpoint: pKi

line notation	measured endpoint	value measured
CC(C)N(C(=O)N[C@H]1CC[C@H](CCN2CCN(c3cc(-c4cccnc4)cc(N4CCOCC4)n3)CC2)CC1)C(C)C	pKi	8.77
CC(=O)N[C@H]1CC[C@H](CCN2CCN(c3cc(-c4ccccc4)cc(N4CCOCC4)n3)CC2)CC1	pKi	8.51
O=C(N[C@H]1CC[C@H](CCN2CCN(c3cc(-c4ccc[nH]4)cc(N4CCOCC4)n3)CC2)CC1)N1CCCCC1	pKi	8.40
CNC(=O)N[C@H]1CC[C@H](CCN2CCN(c3cc(-c4ccc(F)cc4)cc(N4CCOCC4)n3)CC2)CC1	pKi	8.55

====

Reported Ki values are given for each entry in this list.
# target entity: H1 receptor (Homo sapiens)
# Construct: expressed in transfected cells; host or cells: HEK-293
# Sequence (P35367 whole entry): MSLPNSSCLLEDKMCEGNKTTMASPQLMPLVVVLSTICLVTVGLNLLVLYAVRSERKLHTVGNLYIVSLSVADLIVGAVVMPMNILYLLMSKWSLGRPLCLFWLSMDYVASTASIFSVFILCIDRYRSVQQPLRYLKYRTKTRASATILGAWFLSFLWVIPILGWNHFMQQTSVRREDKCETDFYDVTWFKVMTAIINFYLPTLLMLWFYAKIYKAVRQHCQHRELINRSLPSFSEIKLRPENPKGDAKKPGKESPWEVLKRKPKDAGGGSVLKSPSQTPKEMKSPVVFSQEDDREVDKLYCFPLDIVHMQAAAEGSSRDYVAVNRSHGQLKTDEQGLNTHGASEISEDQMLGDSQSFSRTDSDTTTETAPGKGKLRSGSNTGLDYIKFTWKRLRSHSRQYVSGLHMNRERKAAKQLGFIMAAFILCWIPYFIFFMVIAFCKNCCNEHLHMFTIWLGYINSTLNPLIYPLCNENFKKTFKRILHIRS
# assay summary: H1 receptor binding test
# assay setup: 1 nM [3H]pyrilamine, HEK-293 cell membrane homogenate; read-out: Affinity of the compound for H1 receptor (Ki value, nM) H1
measured endpoint: Ki

compound	value measured
COCC(=O)N[C@H]1CC[C@H](CCN2CCN(c3cc(-c4ccco4)cc(N4CCOCC4)n3)CC2)CC1 [Compound V-2]	740 nM
CN(C)C(=O)N[C@H]1CC[C@H](CCN2CCN(c3cc(-c4ccco4)cc(N4CCOCC4)n3)CC2)CC1 [Compound V-3]	800 nM
CN(C)C(=O)N[C@H]1CC[C@H](CCN2CCN(c3cc(-c4ccccc4)cc(N4CCOCC4)n3)CC2)CC1 [Compound I-7]	420 nM
CC(=O)N[C@H]1CC[C@H](CCN2CCN(c3cc(-c4ccco4)cc(N4CCOCC4)n3)CC2)CC1 [Compound V-1]	530 nM
CCOC(=O)N[C@H]1CC[C@H](CCN2CCN(c3cc(-c4ccccc4)cc(N4CCOCC4)n3)CC2)CC1 [Compound I-3]	> 1000 nM
COc1ccc(-c2cc(N3CCOCC3)nc(N3CCN(CC[C@H]4CC[C@H](NC(=O)N5CCCC5)CC4)CC3)c2)cc1 [III-1]	> 1000 nM
COc1ccc(-c2cc(N3CCOCC3)nc(N3CCN(CC[C@H]4CC[C@H](NC(=O)N5CCCCC5)CC4)CC3)c2)cc1 [III-3]	> 1000 nM
O=C(N[C@H]1CC[C@H](CCN2CCN(c3cc(-c4cccs4)cc(N4CCOCC4)n3)CC2)CC1)C1CC1 [VI-2]	> 1000 nM
CCCC(=O)N[C@H]1CC[C@H](CCN2CCN(c3cc(-c4ccccc4)cc(N4CCOCC4)n3)CC2)CC1 [Compound I-2]	950 nM
O=C(N[C@H]1CC[C@H](CCN2CCN(c3cc(-c4ccc[nH]4)cc(N4CCOCC4)n3)CC2)CC1)C1CCCCC1 [VII-3]	870 nM
O=C(N[C@H]1CC[C@H](CCN2CCN(c3cc(-c4ccccc4)cc(N4CCOCC4)n3)CC2)CC1)C1CC1 [Compound I-4]	550 nM
CC(C)N(C(=O)N[C@H]1CC[C@H](CCN2CCN(c3cc(-c4cccnc4)cc(N4CCOCC4)n3)CC2)CC1)C(C)C [IV-4]	670 nM
O=C(N[C@H]1CC[C@H](CCN2CCN(c3cc(-c4ccc[nH]4)cc(N4CCOCC4)n3)CC2)CC1)N1CCCCC1 [VII-5]	> 1000 nM
O=C(N[C@H]1CC[C@H](CCN2CCN(c3cc(-c4ccc(F)cc4)cc(N4CCOCC4)n3)CC2)CC1)c1ccccc1 [II-1]	670 nM
CCC(=O)N[C@H]1CC[C@H](CCN2CCN(c3cc(-c4cccnc4)cc(N4CCOCC4)n3)CC2)CC1 [IV-1]	> 1000 nM
O=C(N[C@H]1CC[C@H](CCN2CCN(c3cc(-c4ccccc4)cc(N4CCOCC4)n3)CC2)CC1)C1CCCCC1 [Compound I-5]	> 1000 nM
COc1ccc(-c2cc(N3CCOCC3)nc(N3CCN(CC[C@H]4CC[C@H](NC(=O)N5CCN(C)CC5)CC4)CC3)c2)cc1 [III-4]	980 nM
CNC(=O)N[C@H]1CC[C@H](CCN2CCN(c3cc(-c4ccc(F)cc4)cc(N4CCOCC4)n3)CC2)CC1 [II-4]	540 nM
